propertyLabel: melting point

Entry `CC(C)(C)NC(=O)c1nn(-c2ccc(F)cc2)c2c1C1CC3CC(C1)CC2C3` — recorded melting point = 214 to 216 °C

Record summary for CC1COc2c(Br)c(F)cc3c(=O)c(C(=O)O)cn1c23 (stereo not given) : reported melting point = > 250 °C

Lab book: melting point of CSc1ccc(NC(=O)C2C(=O)N(c3ccccc3)N=C2C)cc1 (stereo not given) noted as 196 to 199 °C

Lab note: measured melting point of `Oc1ccc(C2=CCCCC2)cc1` was 115 to 119 °C

melting point reported for this molecule CCOc1ccnc(C(C)NC(=O)Nc2ccc(Br)cn2)c1F (stereo not given) : 143 to 145 °C

Values from a melting point compilation (Tetko et al.; mined from patent text by program, amines drawn as free bases though some values may be those of a salt)
